- tested-target: DRP1 (Homo sapiens, UniProt O00429)
- Construct: Human DRIP1 (UniProtID: O00429.4, residues 1-699)
- Sequence (O00429 1-699 isoform O00429-4): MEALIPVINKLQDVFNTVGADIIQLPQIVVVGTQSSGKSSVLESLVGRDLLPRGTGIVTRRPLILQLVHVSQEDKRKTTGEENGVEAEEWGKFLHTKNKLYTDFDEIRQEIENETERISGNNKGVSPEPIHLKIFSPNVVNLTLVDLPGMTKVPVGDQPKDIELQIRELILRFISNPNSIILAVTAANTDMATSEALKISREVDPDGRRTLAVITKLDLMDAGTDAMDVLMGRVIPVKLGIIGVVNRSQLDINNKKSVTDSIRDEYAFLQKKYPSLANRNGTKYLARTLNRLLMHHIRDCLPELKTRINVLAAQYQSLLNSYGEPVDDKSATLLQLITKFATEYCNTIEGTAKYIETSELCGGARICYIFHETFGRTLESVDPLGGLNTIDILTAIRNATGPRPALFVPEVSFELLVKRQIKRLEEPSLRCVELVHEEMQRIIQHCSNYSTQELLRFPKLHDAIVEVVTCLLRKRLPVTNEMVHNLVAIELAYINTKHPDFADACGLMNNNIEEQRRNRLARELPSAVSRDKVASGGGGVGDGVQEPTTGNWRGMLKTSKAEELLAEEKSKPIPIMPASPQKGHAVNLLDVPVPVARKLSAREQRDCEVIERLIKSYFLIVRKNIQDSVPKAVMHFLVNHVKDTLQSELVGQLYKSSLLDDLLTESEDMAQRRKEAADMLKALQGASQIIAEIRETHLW
- method-summary: AlphaLISA assay (His-DRP1 / MiD49-GST interaction)
- condition: His-DRP1 200 nM, MiD49-GST 20 nM, GMP-PNP 100 uM
outcome-measure: IC50

compound	outcome-measure	value-measured
CCCOC(C)C(=O)Nc1ccc2nc(-c3cncs3)cc(OCCOC)c2c1 (stereo not drawn)	IC50	< 0.5 µM
COC[C@H](C)Oc1cc(-c2cncs2)nc2ccc(NC(=O)[C@H](C)OC)cc12	IC50	1 to 10 µM
COCC(C)Oc1cc(-c2cncs2)nc2ccc(NC(=O)C3COC3)cc12 (stereo not drawn)	IC50	< 0.5 µM
CCOc1cc(-n2cnnc2)nc2ccc(NC(=O)C3COC3)cc12	IC50	1 to 10 µM
Cc1cn(-c2cc(OC3CC3)c3cc(NC(=O)C4COC4)ccc3n2)cn1	IC50	1 to 10 µM
O=C(Nc1ccc2nc(-c3cncs3)cc(OCCO)c2c1)C(F)(F)F	IC50	1 to 10 µM
COCCOc1cc(-c2cnn(C)c2)nc2ccc(NC(=O)C3COC3)cc12	IC50	0.5 to 1 µM
COCCOc1cc(-c2cncs2)nc2ccc(NC(=O)[C@H](C)OC)cc12	IC50	< 0.5 µM
COCCOc1cc(-c2cncs2)nc2ccc(NC(=O)[C@@H](C)O)cc12	IC50	1 to 10 µM

----------
- tested-target: DRP1 (Homo sapiens)
- Construct: Human DRIP1 (UniProtID: O00429.4, residues 1-699)
- method-summary: AlphaLISA assay (His-DRP1 / MiD49-GST interaction)
- condition: His-DRP1 200 nM, MiD49-GST 20 nM, GMP-PNP 100 uM
pIC50: −log10 of the molar value.

compound	pIC50
COCCOc1cc(-c2cncs2)nc2ccc(NC(=O)COC)cc12	5.00 to 6.00
CCOc1cc(-n2cnc(C)c2)nc2ccc(NC(=O)C3COC3)cc12	> 6.30
COc1cc(-c2cncs2)nc2ccc(NC(=O)C3COC3)cc12	6.00 to 6.30
CCOc1cc(-c2cnc(C3CC3)s2)nc2ccc(NC(=O)C3COC3)cc12	6.00 to 6.30
COCCOc1cc(-c2cncs2)nc2ccc(NC(=O)C(C)COC)cc12 (centres unmarked)	6.00 to 6.30

----------
pIC50 values by entry
- tested-target: DRP1 (Homo sapiens)
- Construct: Human DRIP1 (UniProtID: O00429.4, residues 1-699)
- method-summary: AlphaLISA assay (His-DRP1 / MiD49-GST interaction)
- condition: His-DRP1 200 nM, MiD49-GST 20 nM, GMP-PNP 100 uM
pIC50: −log10 of the molar value.

compound	pIC50
COCCOc1cc(-c2cncs2)nc2ccc(NC(=O)C3COC3)cc12	> 6.30
O=C(Nc1ccc2nc(-n3ccnc3)cc(OCCO)c2c1)C1COC1	5.00 to 6.00
CCOc1cc(-c2cnc(C)s2)nc2ccc(NC(=O)C3COC3)cc12	> 6.30
COC[C@@H](C)Oc1cc(-c2cncs2)nc2ccc(NC(=O)[C@H](C)OC)cc12	< 5.00
COCCOc1cc(-c2cncs2)nc2ccc(NC(=O)C(F)(F)CO)cc12	6.00 to 6.30
COCCOc1cc(-c2cncs2)nc2ccc(NC(=O)[C@H]3C[C@H](OC)C3)cc12	< 5.00
COCCOc1cc(-c2cncs2)nc2ccc(NC(=O)[C@@H]3C[C@H]3C#N)cc12 (racemic)	6.00 to 6.30
COCCOc1cc(-c2cncs2)nc2ccc(NC(=O)[C@H]3C[C@@H](O)C3)cc12	> 6.30

# credit: patent US20260125372A1
